tgt: Focal adhesion kinase 1 (Homo sapiens)
assayDetails: PTK2 protein binding on printed compound slides – biochemical, small-molecule microarray, 635/667 nm fluorescence, BSA, DTT, primary screen (AID 1130);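 further: composite of spot emission at 667 nm and signal to noise over triplicate slides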
protocolConditions: 635 nm fluorescence, higher = more signal
readout: composite z-score

- CCCCCCc1nc(-c2ccc(-c3ccc(Cl)c(Cl)c3)o2)cc2c1[Si](C(C)C)(C(C)C)OC2: -0.0104
- COCCOC(=O)N1C(=O)[C@@]2(c3cc(C#CCNC(N)=O)ccc31)[C@H](C(=O)Nc1nc3ccccc3s1)[C@H]1C(=O)O[C@H](c3ccccc3)[C@H](c3ccccc3)N1[C@@H]2c1ccccc1OCCO: 0.553
- CC(C)N1C(=O)c2ccccc2[C@](C)(C(=O)NCC(F)(F)F)[C@@H]1c1ccc(CO)cc1: -0.749
- COc1ccc(C(=O)Nc2cccc(CN3C(=O)[C@]4(O[C@H](CC(=O)N5Cc6ccccc6C[C@H]5CO)[C@@H]([Si](C)(C)c5ccc(OC)cc5)[C@@H]4C)c4ccccc43)c2)cc1: 0.343
- COCCOC(=O)N1C(=O)[C@@]2(c3cc(C#CCC(C(=O)OC)C(=O)OC)ccc31)[C@H](C(=O)Nc1nc3ccccc3s1)[C@H]1C(=O)O[C@H](c3ccccc3)[C@H](c3ccccc3)N1[C@@H]2c1ccc(OCCO)cc1: 0.35
- CCCC[C@H]1C[C@@H]1[C@@H]1N(C(C)=O)[C@H](c2cccc(OC)c2)CC12CC2: 0.17
- Cc1ccc(S[C@]2(C(=O)NC(C)C)CC(=O)N(C3CCCCC3)[C@@H]2c2ccc(CO)cc2I)cc1: 0.414
- CC(C)(C)N1CC=CC23O[C@@H]4/C=C\CCCOC(=O)C4[C@H]2C(=O)N(CCCO)[C@@H]3C1=O (some centres undefined): -0.572
- NCCCCCCNC(=O)[C@@H]1C[C@@H]2C(=O)N3CCC[C@H]3C(=O)N2[C@@H]1c1cccc(OCCO)c1: 0.0676
- CCC(CC)C(O)C1C=CC2C(=O)N(c3ccccc3)C(=O)C2N1Nc1ccccc1F (centres undefined): 0.869
- Cc1ccccc1C(O)C1C=CC2C(=O)N(c3ccccc3)C(=O)C2N1Nc1ccccc1 (centres undefined): 0.969
- COc1ccc(C#Cc2ccc3c(c2)[C@]2(C(=O)N3)[C@H](C(=O)O)[C@H]3C(=O)O[C@H](c4ccccc4)[C@H](c4ccccc4)N3[C@@H]2c2ccccc2OCCO)cc1: 0.352
- C=C(CCCC)/C(=C/C[C@@H](OC(C)=O)c1ccc(CO)o1)c1cnc2ccccc2c1: 0.119
- CC(=O)c1ccc(C(O)C2C=CC3C(=O)N(c4ccccc4)C(=O)C3N2Nc2ccc(C(C)C)cc2)cc1 (centres undefined): 0.329
- CCCCN1CC=CC23O[C@@H]4/C=C\CCCOC(=O)C4[C@H]2C(=O)N(C(CO)C(C)C)[C@@H]3C1=O (some centres undefined): -0.192
- O=C1c2ccccc2[C@@]2(Cc3ccccc3N(Cc3ccccc3)C2=O)[C@H](c2ccc(CO)cc2)N1Cc1ccccc1Cl: -0.0858
- CCOC(=O)C[C@H]1[C@H](OC(=O)Cc2ccc3c(c2)OCO3)[C@@H](NC(=O)Cc2ccc(OC)cc2)c2cc(OCCCO)ccc2N1C(=O)Cc1ccc(OC)cc1: -0.113
- [N-]=[N+]=Nc1ccccc1[C@H]1OC(c2ccc(OCCCO)cc2)=N[C@@]1(Cc1ccccc1)C(=O)NCC(O)CO (some centres undefined): 0.0145
- COc1ccc(C(=O)Nc2cccc(CN3C(=O)[C@@]4(O[C@@H](CC(=O)N5CCC[C@H]5CO)[C@H]([Si](C)(C)c5ccc(OC)cc5)[C@H]4C)c4ccccc43)c2)cc1: 0.988
- CC(C)=CCCC(C)=CC(O)C1C=CC2C(=O)NC(=O)C2N1Nc1ccc(Cl)cc1Cl (centres undefined): 1.15
- CC(C)(C)N1CC=CC23O[C@@H]4/C=C\CCCOC(=O)C4[C@H]2C(=O)N(CCCCCO)[C@@H]3C1=O (some centres undefined): -0.716
- O=C(NCC(O)CO)[C@@]1(CCS(=O)(=O)c2ccccc2)N=C(c2ccc(OCCCO)cc2)O[C@H]1c1ccccc1 (some centres undefined): 1.38
- CC1CC/C=C\[C@H]2OC34C=CCN(Cc5ccccc5)C(=O)[C@H]3N(CCCCCCO)C(=O)[C@@H]4C2C(=O)O1 (some centres undefined): -0.28
- CN(C)CCCNC(=O)[C@@]1(Cc2ccccc2I)c2ccccc2C(=O)N(C2CCCCC2)[C@H]1c1ccc(CO)cc1: 0.732
- COCCCNC(=O)[C@@H]1c2ccccc2C(=O)N(Cc2ccc(OC(F)(F)F)cc2)[C@H]1c1ccc(CO)cc1: 1.79
- COC(=O)[C@@]1(Cc2ccc(F)cc2)[C@H]2c3cc(C(=O)N4CCCC4)n(CCc4ccccn4)c3C[C@H]2CN1C(=O)c1ccccc1: 0.754
- C=C(/C(=C/C[C@@H](OC(C)=O)c1cccc(OCCO)c1)c1cnc2ccccc2c1)C(C)C: 0.138
- C=C(C)[C@@H]1CC=C(C(O)C2C=CC3C(=O)N(C)C(=O)C3N2Nc2ccc([N+](=O)[O-])cc2[N+](=O)[O-])CC1 (some centres undefined): 0.512
- CN(C)CCCNC(=O)[C@@]1(C)c2ccccc2C(=O)N(Cc2ccc(OC(F)(F)F)cc2)[C@H]1c1ccc(CO)cc1: 0.37
